Reference for the values: patent US7851487B2

Biological target: dopamine transporter (Rattus norvegicus, UniProt P23977)
Construct: tissue Pel-Freez, Rogers, AR; host or cells: rat striatum membranes
Sequence (P23977 whole entry): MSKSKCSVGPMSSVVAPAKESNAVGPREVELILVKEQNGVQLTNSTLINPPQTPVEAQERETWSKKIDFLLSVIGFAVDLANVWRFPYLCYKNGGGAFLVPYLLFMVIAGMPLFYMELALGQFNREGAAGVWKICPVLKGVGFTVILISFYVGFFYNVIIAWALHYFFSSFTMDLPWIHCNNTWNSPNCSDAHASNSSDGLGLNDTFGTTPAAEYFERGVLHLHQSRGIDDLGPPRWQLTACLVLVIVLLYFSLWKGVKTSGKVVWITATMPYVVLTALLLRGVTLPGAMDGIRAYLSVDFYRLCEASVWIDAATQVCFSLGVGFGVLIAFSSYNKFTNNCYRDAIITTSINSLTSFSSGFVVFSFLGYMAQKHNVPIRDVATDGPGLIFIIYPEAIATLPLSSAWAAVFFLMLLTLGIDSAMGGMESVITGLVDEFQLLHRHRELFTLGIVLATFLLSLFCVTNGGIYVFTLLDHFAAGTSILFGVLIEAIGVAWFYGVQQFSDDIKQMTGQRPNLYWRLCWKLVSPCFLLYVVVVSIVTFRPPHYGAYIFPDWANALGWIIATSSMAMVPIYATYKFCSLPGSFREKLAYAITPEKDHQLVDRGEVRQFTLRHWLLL
Experiment: [125I]RTI-55 displacement at dopamine transport sites, rat striatum membranes
Assay type: binding
Settings: DA (IC50, nM), displacement of 10 pM [125I]RTI-55, rat striatum
Description: For this Example, binding of at biogenic amine transporters was determined using striatum and frontal cortex dissected from frozen Sprague-Dawley rat brains (Pel-Freez, Rogers, AR). Affinities of analogs at dopamine transport sites were determined by displacement of [^125I]RTI-55 binding in membranes from rat striatum, using 0.5 mg (original wet weight) of membranes and 10 pM [^125]RTI-55. Non-specific binding was determined in the presence of 1 μM WF-23 (analog 3a). […]
Structures can show the parent of a compound that is named as a salt.
Just a reminder that ties go to rule not met: only IC50 strictly below 500 nM counts as rule met.

Worked set:
COMPOUND | TARGET_UNDER_TEST | CLASSIFICATION
COC(=O)[C@H](c1ccc(Br)cc1)[C@@H]1C=CCCN1 [(2R,2′S)-4b] | dopamine transporter (Rattus norvegicus, UniProt P23977) | rule not met
COC(=O)[C@@H](c1ccc(Br)cc1)[C@H]1C=CCCN1 [(2S,2′R)-4b, hydrochloride] | dopamine transporter (Rattus norvegicus, UniProt P23977) | rule not met
COC(=O)[C@@H](c1ccc2ccccc2c1)[C@H]1C=CCCN1 [(2S,2′R)-4f] | dopamine transporter (Rattus norvegicus, UniProt P23977) | rule not met
COC(=O)C(c1ccc(Cl)c(Cl)c1)C1C=CCCN1 [(2R,2′S)-4d] | dopamine transporter (Rattus norvegicus, UniProt P23977) | rule met

API: the following record is the query input.
Query :: Does this compound meet the criterion IC50 < 500 nM? COC(=O)C(c1ccc(Cl)c(Cl)c1)C1C=CCCN1 [(2S,2′R)-4d]
Result :: rule met
